Tested on: CP237
Assay: qHTS profiling for inhibitors of Plasmodium falciparum proliferation (AID 504749); further: nearly all actives have a fitted effect of over 60% in size
Conditions: P. falciparum in erythrocytes, SYBR Green DNA, 72 h; series mostly up to 28.7 µM
Inconclusive results are not listed. Calls of active or inactive are those of the source. The call rests on the fitted dose curve; in most records, active means well fitted inhibition curve with a large enough effect; inconclusive means small, poorly fitted or top-dose-only effect; inactive means flat fitted curve, though single readings scatter.
Classes to choose from: active, inactive

Use these answered entries as a reference point.
# MOLECULE, ASSIGNED_LABEL
rows = [
    ("CCOc1ccccc1OCCN[C@H](C)Cc1ccc(OC)c(S(N)(=O)=O)c1", "inactive"),
    ("C#C[C@]1(O)CC[C@H]2[C@@H]3CCc4cc(OC)ccc4[C@H]3CC[C@@]21C", "inactive"),
    ("CN(CCCN1c2ccccc2CCc2ccccc21)CC(=O)c1ccc(Cl)cc1", "active"),
]

Query: Answer briefly: the call reported for CC(=O)Nc1ncc([N+](=O)[O-])s1 in this assay.
Reply: inactive

Query: Answer briefly: the call reported for CCCCCN=C(N)N/N=C/c1c[nH]c2ccc(OC)cc12 in this assay.
Reply: active

Query: Answer briefly: the call reported for O=C1C(CCS(=O)c2ccccc2)C(=O)N(c2ccccc2)N1c1ccccc1 (stereo unspecified) in this assay.
Reply: inactive

Query: Answer briefly: the call reported for COc1cc(C(=O)NCc2ccc(OCCN(C)C)cc2)cc(OC)c1OC in this assay.
Reply: inactive

Query: Answer briefly: the call reported for CCCc1ncc(C[n+]2ccccc2C)c(N)n1 in this assay.
Reply: inactive

Query: Answer briefly: the call reported for O=C(NC1CCN(CCc2c[nH]c3ccccc23)CC1)c1ccccc1 in this assay.
Reply: inactive

Query: Answer briefly: the call reported for COc1cc(O)c(C(=O)c2ccccc2)cc1S(=O)(=O)O in this assay.
Reply: inactive

Query: Answer briefly: the call reported for CC(=O)Nc1ccc(OC(=O)c2ccccc2OC(C)=O)cc1 in this assay.
Reply: inactive

---

Test: qHTS Assay for Lipid Storage Modulators (AID 1519); further: on the % scale 0 is the no-effect control and ±100 the full control effect
Conditions: Drosophila S3 cells, BODIPY lipid droplet/cell ratio, laser cytometry; at 57.5 µM (top of the series); cells loaded with oleic acid
Records with an inconclusive call do not appear.
Quick reference for activity change, negative = inhibition among some compounds
Field: numeric (%). Do not append units.

Here's what some known entries look like.
# COMPOUND, activity change, negative = inhibition, %
data = [
    ("CNCCc1ccccn1", 1.62),
    ("CC(C)NCC(O)c1ccc2ccccc2c1 (configuration not stated)", 9.75),
    ("C[N+]12CCC(CC1)C(OC(=O)C(O)(c1ccccc1)c1ccccc1)C2 (configuration not stated)", 1.37),
    ("COc1cc(NS(=O)(=O)c2ccc(N)cc2)ncn1", 3.4),
    ("CCN1CCCC(OC(=O)C(c2ccccc2)c2ccccc2)C1 (configuration not stated)", -10.7),
]

Query: Form field: reported activity change, negative = inhibition of CCN(CC)CCNC(=O)c1cc(Br)c(N)cc1OC
Reply: 5.14

Query: Form field: reported activity change, negative = inhibition of OCCOCCN1CCN(C2=Nc3ccccc3Sc3ccccc32)CC1
Reply: 5.93

---

Test system: AA1029
Test: qHTS profiling for inhibitors of Plasmodium falciparum proliferation (AID 504749); further: nearly all actives have a fitted effect of over 60% in size
Settings: P. falciparum in erythrocytes, SYBR Green DNA, 72 h; series mostly up to 28.7 µM
Inconclusive results are not listed. The source made the active and inactive calls. The call rests on the fitted dose curve; in most records, active means well fitted inhibition curve with a large enough effect; inconclusive means small, poorly fitted or top-dose-only effect; inactive means flat fitted curve, though single readings scatter.
Classes to choose from: active, inactive

Use these answered entries as a reference point.
# COMPOUND, STUDY_SYSTEM, ASSIGNED_LABEL
data = [
    ("COc1ccc(-c2cc(C(F)F)nn2-c2ccc(S(N)(=O)=O)cc2)cc1F", "AA1029", "inactive"),
    ("OC1C(O)C(O)C(O)C(O)C1O (stereo not drawn)", "AA1029", "inactive"),
    ("O=C(Nc1ccc([N+](=O)[O-])cc1)Nc1ccc([N+](=O)[O-])cc1", "AA1029", "inactive"),
]

Query: Answer briefly: the call reported for COc1cc(C)nc(-n2nc(C)cc2OC)n1 in this assay.
Reply: inactive

Query: Answer briefly: the call reported for CC(C)Cn1cnc2c1c(=O)n(C)c(=O)n2C in this assay.
Reply: inactive

Query: Answer briefly: the call reported for CCc1oc2ccccc2c1C(=O)c1cc(Br)c(O)c(Br)c1 in this assay.
Reply: inactive

Query: Answer briefly: the call reported for COc1cc(NS(=O)(=O)c2ccc(N)cc2)ncn1 in this assay.
Reply: inactive

Query: Answer briefly: the call reported for CCCCNC(=O)NS(=O)(=O)c1ccc(N)cc1 in this assay.
Reply: inactive

Query: Answer briefly: the call reported for C#C[C@]1(O)CC[C@H]2[C@@H]3CCC4=CC(=O)CC[C@@H]4[C@H]3CC[C@@]21CC in this assay.
Reply: inactive

Query: Answer briefly: the call reported for O=C1C(CCS(=O)c2ccccc2)C(=O)N(c2ccccc2)N1c1ccccc1 (stereo not drawn) in this assay.
Reply: inactive

Query: Answer briefly: the call reported for C#C[C@]1(O)CC[C@H]2[C@@H]3CCC4=Cc5oncc5C[C@]4(C)[C@H]3CC[C@@]21C in this assay.
Reply: inactive

Query: Answer briefly: the call reported for CCCCNc1ccc(C(=O)OCCOCCOCCOCCOCCOCCOCCOCCOCCOC)cc1 in this assay.
Reply: inactive

Query: Answer briefly: the call reported for O=C1C(=O)c2ccccc2C(O)=C1C1CCC(c2ccc(Cl)cc2)CC1 (stereo not drawn) in this assay.
Reply: active

Query: Answer briefly: the call reported for CC(=O)Nc1ccc(S(=O)(=O)Nc2ccc([N+](=O)[O-])cc2)cc1 in this assay.
Reply: inactive

Query: Answer briefly: the call reported for c1ccc(CC2=NCCN2)cc1 in this assay.
Reply: inactive

Query: Answer briefly: the call reported for COc1cc(O)c(C(=O)c2ccccc2)cc1S(=O)(=O)O in this assay.
Reply: inactive

Query: Answer briefly: the call reported for O=C(O)P(=O)(O)O in this assay.
Reply: inactive

Query: Answer briefly: the call reported for O=c1[nH]c(=O)n([C@H]2C[C@H](O)[C@@H](CO)O2)cc1F in this assay.
Reply: inactive

Query: Answer briefly: the call reported for Nc1nc(N)c(-c2ccccc2)s1 in this assay.
Reply: inactive

Query: Answer briefly: the call reported for CCCN(CCc1cccs1)[C@H]1CCc2c(O)cccc2C1 in this assay.
Reply: active

Query: Answer briefly: the call reported for C=C[C@@]1(C)CC(=O)[C@]2(O)[C@@]3(C)[C@@H](O)CCC(C)(C)[C@@H]3[C@H](O)[C@H](OC(C)=O)[C@@]2(C)O1 in this assay.
Reply: inactive

Query: Answer briefly: the call reported for Cc1cccc(C)c1NC(=O)CN1CCCC1 in this assay.
Reply: inactive

Query: Answer briefly: the call reported for Cc1cc(-c2ccccc2)nnc1NCCN1CCOCC1 in this assay.
Reply: inactive

---

Assay: Cellular Toxicity (caspase-3) Hek293 (AID 664);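 further: cells exposed to compound for 16 h at 37 °C before readout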
Settings: HEK293 caspase-3 activation, DMSO = 0%, 100 µM tamoxifen = 100%; series mostly up to 92.2 µM
Excerpt: NIH Chemical Genomics Center [NCGC] NIH Molecular Libraries Screening Centers Network [MLSCN] National Institutes of Environmental Health Sciences [NIEHS] National Toxicology Program [NTP] We have developed a 1536-well cell-based assay for quantitative high throughput screening (qHTS) against a number of cell lines to determine in vitro caspase 3/7 of small molecules. […] 8. Detection; Luminescence; Viewlux plate reader […]
Inconclusive results are not listed. Active and inactive are the calls of the source. Calls come from the whole dose curve; as a rule, active = well fitted activation curve with a large enough effect; inconclusive = small, poorly fitted or top-dose-only effect; inactive = flat fitted curve, though single readings scatter.

# SMILES_INPUT, outcome
measured = [
    ("Oc1c(Cl)cc(Cl)c(Cl)c1Cc1c(O)c(Cl)cc(Cl)c1Cl", "inactive"),
    ("OC[C@H]1O[C@@H]2O[C@H]3[C@H](O)[C@@H](O)[C@@H](O[C@H]4[C@H](O)[C@@H](O)[C@@H](O[C@H]5[C@H](O)[C@@H](O)[C@@H](O[C@H]6[C@H](O)[C@@H](O)[C@@H](O[C@H]7[C@H](O)[C@@H](O)[C@@H](O[C@H]8[C@H](O)[C@@H](O)[C@@H](O[C@H]1[C@H](O)[C@H]2O)O[C@@H]8CO)O[C@@H]7CO)O[C@@H]6CO)O[C@@H]5CO)O[C@@H]4CO)O[C@@H]3CO", "inactive"),
]

---

System: P93_24
Assay: qHTS profiling for inhibitors of Plasmodium falciparum proliferation (AID 504749); further: nearly all actives have a fitted effect of over 60% in size
Details: P. falciparum in erythrocytes, SYBR Green DNA, 72 h; series mostly up to 28.7 µM
Results filed as inconclusive are left out. Active and inactive are the calls of the source. Calls follow the shape of the dose curve; as a rule, active = well fitted inhibition curve with a large enough effect; inconclusive = small, poorly fitted or top-dose-only effect; inactive = flat fitted curve, though single readings scatter.
Classes to choose from: YES for active, NO for inactive

Use these answered entries as a reference point.
# COMPOUND, ASSIGNED_LABEL
rows = [
    ("COc1ccc2c(c1)c1c3n2CCN(C)C3=NCC1", "NO"),
    ("O=C(O)Cc1csc(-c2ccc(Cl)cc2)n1", "NO"),
    ("C[N+]1(C)CCC(=C(c2ccccc2)c2ccccc2)CC1", "NO"),
    ("CCCCc1cc2ccccc2c(OCCN(C)C)n1", "NO"),
    ("CCC(CC)(CC(=O)Nc1cccc(/C=C/c2nc(C3CCC3)cs2)c1)C(=O)O", "NO"),
]

Query: Answer briefly: the call reported for Cc1ccccc1OCC(O)CO (stereo not drawn) in this assay.
Reply: NO

Query: Answer briefly: the call reported for COc1ccc(CN(CCN(C)C)c2ncccn2)cc1 in this assay.
Reply: YES

Query: Answer briefly: the call reported for O=C(O)P(=O)(O)O in this assay.
Reply: NO

Query: Answer briefly: the call reported for NC(N)=NCc1cccc(I)c1 in this assay.
Reply: NO

Query: Answer briefly: the call reported for NS(=O)(=O)Cc1noc2ccccc12 in this assay.
Reply: NO

These data points were gathered from PubChem BioAssay (NCATS).
